Response field label takes True when melting point is strictly below 200 °C and False in all other cases.

# compound, class_name
measured = [
    ("COc1ccc(S(=O)(=O)N2CCC3(CC2)C(=O)N(Cc2nc4cc(Cl)ccc4n2CCCS(C)(=O)=O)c2ccccc23)cc1 [Compound 36]", "False"),
    ("CC(C)(O)C(=O)N1CC2(C1)C(=O)N(Cc1nc3cc(Cl)ccc3n1CCCCF)c1ccccc12 [Compound 183]", "False"),
    ("CS(=O)(=O)CCCn1c(CN2C(=O)C3(CCOCC3)c3ccc(F)cc32)nc2cc(Cl)ccc21 [Compound 10]", "False"),
    ("COC(=O)N1CCC2(CC1)C(=O)N(Cc1nc3cc(Cl)ccc3n1CCCCF)c1cnccc12 [Compound 178]", "True"),
    ("CS(=O)(=O)CCCn1c(CN2C(=O)C3(CC(O)C3)c3ccccc32)nc2cc(Cl)ccc21 (stereo not drawn) [Compound 12]", "False"),
    ("N#CCCCn1c(CN2C(=O)C3(CCN(S(=O)(=O)C4CC4)CC3)c3ccncc32)cc2cc(Cl)ccc21 [Compound 81]", "True"),
    ("CS(=O)(=O)CCCn1c(CN2C(=O)C3(CCN(S(=O)(=O)c4ccc(F)cc4)CC3)c3ccccc32)nc2cc(Cl)ccc21 [Compound 34]", "True"),
    ("CC(C)(C)OC(=O)N1CC2(C1)C(=O)N(Cc1nc3cc(Cl)ccc3n1CCCC#N)c1ccccc12 [Compound 70]", "True"),
    ("CC(C)(O)C(=O)N1CC2(C1)C(=O)N(Cc1cc3cc(Cl)ccc3n1CCCCO)c1ccccc12 [Compound 166]", "True"),
    ("CS(=O)(=O)CCCn1c(CN2C(=O)C3(CN(C(=O)C(F)(F)F)C3)c3ccccc32)nc2cc(Cl)ccc21 [Compound 31]", "False"),
    ("CC(C)(O)C(=O)N1CC2(C1)C(=O)N(Cc1cc3cc(Cl)ccc3n1CCCC#N)c1ccccc12 [Compound 73]", "True"),
    ("CS(=O)(=O)CCCn1c(CN2C(=O)C3(CCN(S(=O)(=O)C4CC4)CC3)c3ccncc32)nc2cc(Cl)ccc21 [Compound 85]", "True"),
    ("CC(=O)NS(=O)(=O)N1CCC2(CC1)C(=O)N(Cc1cc3cc(Cl)ccc3n1CCCC#N)c1cnccc12 [Compound 172]", "False"),
]

----------
Counter-ions that a name gives are not always drawn.

# compound, melting point / °C
data = [
    ("CC(=O)N[C@H]1C[C@@]2(C1)C(=O)N(Cc1nc3cc(Cl)ccc3n1CCCC#N)c1ccccc12", 194.77),
    ("N#CCCCn1c(CN2c3ccccc3[C@]3(C[C@@H](O)C3)C2=O)nc2cc(Cl)ccc21", 217.25),
    ("CC(=O)NS(=O)(=O)N1CC2(C1)C(=O)N(Cc1cc3cc(Cl)ccc3n1CCCC#N)c1ccccc12", 182.85),
    ("CC(=O)N1CCC2(CC1)C(=O)N(Cc1nc3cc(Cl)ccc3n1CCCS(C)(=O)=O)c1ccccc12", 247.98),
    ("CC(=O)N1CCC2(CC1)C(=O)N(Cc1nc3cc(Cl)ccc3n1CCCC#N)c1cnccc12", 223.53),
    ("N#CCCCn1c(CN2C(=O)C3(CCN(C(=O)OC4COC4)CC3)c3ccncc32)nc2cc(Cl)ccc21", 203.41),
    ("CS(=O)(=O)CCCn1c(CN2C(=O)C3(CC(O)C3)c3ccccc32)nc2cc(Cl)ccc21 (stereo not shown) [Compound 11]", 232.91),
    ("CC(=O)NS(=O)(=O)N1CCC2(CC1)C(=O)N(Cc1cc3cc(Cl)ccc3n1CCCCF)c1cnccc12", 236.92),
    ("CC(C)NC(=O)N[C@H]1C[C@]2(C1)C(=O)N(Cc1nc3cc(Cl)ccc3n1CCCC#N)c1ccccc12", 242.49),
    ("CS(=O)(=O)N1CC2(C1)C(=O)N(Cc1nc3cc(Cl)ccc3n1CCCC#N)c1ccccc12", 214.11),
    ("O=C1N(Cc2nc3nc(Cl)ccc3n2CCCC(F)(F)F)c2cnccc2C12CCOCC2", 188.67),
    ("CC(C)C(=O)N1CC2(C1)C(=O)N(Cc1nc3cc(Cl)ccc3n1CCCS(C)(=O)=O)c1ccccc12", 133.12),
    ("CS(=O)(=O)N1CCC2(CC1)C(=O)N(Cc1cc3cc(Cl)ccc3n1CCCC#N)c1cnccc12", 145.3),
    ("O=C1N(Cc2nc3cc(Cl)ccc3n2CCCC(F)(F)F)c2cc(F)ccc2C12CCOCC2", 172.7),
    ("CC(C)(O)C(=O)N1CCC2(CC1)C(=O)N(Cc1nc3cc(Cl)ccc3n1CCCCF)c1cnccc12", 222.72),
    ("N#CCCCn1c(CN2C(=O)C3(CCNCC3)c3ccncc32)cc2cc(Cl)ccc21 (as salt: hydrochloride)", 82.02),
    ("N#CCCCn1c(CN2C(=O)C3(CCN(C(=O)C(O)(C(F)(F)F)C(F)(F)F)CC3)c3ccncc32)nc2cc(Cl)ccc21", 240.41),
    ("CC(C)OC(=O)N1CCC2(CC1)C(=O)N(Cc1nc3cc(Cl)ccc3n1CCCCF)c1cnccc12", 198.92),
    ("CC(=O)N1CCC2(CC1)C(=O)N(Cc1cc3cc(Cl)ccc3n1CCCS(C)(=O)=O)c1cnccc12", 258.32),
]

----------
# compound, melting point (°C)
rows = [
    ("CC(=O)N1CC2(C1)C(=O)N(Cc1nc3cc(Cl)ccc3n1CCCS(C)(=O)=O)c1ccccc12 [Compound 30]", 221.24),
    ("CC(=O)N[C@H]1C[C@]2(C1)C(=O)N(Cc1nc3cc(Cl)ccc3n1CCCC#N)c1ccccc12", 250.91),
    ("CC(C)(O)C(=O)N1CCC2(CC1)C(=O)N(Cc1nc3cc(Cl)ccc3n1CCCCO)c1cnccc12", 191.87),
    ("CS(=O)(=O)CCCn1c(CN2C(=O)C3(CCN(C(=O)C4CC4)CC3)c3ccncc32)nc2cc(Cl)ccc21", 208.64),
    ("CC(C)NC(=O)N[C@H]1C[C@@]2(C1)C(=O)N(Cc1nc3cc(Cl)ccc3n1CCCC#N)c1ccccc12", 219.9),
    ("CS(=O)(=O)CCCn1c(CN2C(=O)C3(CN(CC(F)(F)F)C3)c3ccccc32)nc2cc(Cl)ccc21", 200.68),
    ("N#CCCCn1c(CN2C(=O)C3(CCN(C(=O)OC4COC4)CC3)c3ccncc32)cc2cc(Cl)ccc21", 208.24),
]
